Listing of entries alongside the reported protein stability index.
B1: PTPRD (parent)
chain: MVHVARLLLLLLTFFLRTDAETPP

Variants of: B1
MEASUREMENT DESCRIPTION: protein stability index of a GFP-peptide fusion (GPS, HEK-293T) (PSI 1-6); higher = more stable;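 also: lentivirally expressed fusions sorted by FACS into six bins by GFP to DsRed ratio, PSI derived from sequencing read proportions per bin multiplied by bin number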
CONDITION: c terminus: a fixed tail appended
Form rule: numeric answer, no unit written next to it.

Below are worked cases with known answers.
# BIOSEQUENCE, protein stability index
rows = [
    ("MRHVARLLLLLLTFFLRTDAETPP [V2R]", 2.51),
    ("MTHVARLLLLLLTFFLRTDAETPP [V2T]", 2.06),
    ("MVHVARLLLLLLTFFLTTDAETPP [R17T]", 2.79),
    ("MVHVARLLLLLLTFFLRTDAQTPP [E21Q]", 4.35),
    ("MVHVARLLLLLNTFFLRTDAETPP [L12N]", 2.12),
]

Q. Could you tell me which protein stability index is on file for MVHVARTLLLLLTFFLRTDAETPP [L7T] ?
A. 3.27

Q. And then MWHVARLLLLLLTFFLRTDAETPP [V2W] , what is it?
A. 2.96

Q. // query: MVHVARLLLLLLTFFLRTDFETPP [A20F]
A. 1.84

Q. Also MVHVARLLLLLLTFDLRTDAETPP [F15D] , if possible.
A. 2.02

Q. Record: MVHVARLLLLLFTFFLRTDAETPP [L12F]
A. 3
